measured-target: Glucose transporter (Leishmania mexicana) (UniProt O61059)
experimental-details: ST_JUDE_LEISH: Cytotoxicity at 2uM final concentration against transgenic Leishmania Mexicana promastigotes LmGT2 that are glucose transport deficient and complemented with the L. Mexicana glucose transporter 2. Activity is measured by DNA content using SYBR green in vitro
Type: functional
# reported inhibition; entries follow

- compound: "Cc1ccc(Oc2cnn(C)c(=O)c2Nc2cccc(C(=O)NCCc3ccccn3)c2)c(C)c1"
  inhibition (%): 3.26
- compound: "CN(CCCCCN1CCC(NC(=O)Nc2ccc(C(F)(F)F)cc2)C1)C(=O)/C=C/c1ccc(Cl)c(Cl)c1 (centres undefined)"
  inhibition (%): 2.97
- compound: "O=C1COC2(CN1C1CCN(Cc3ccc(O)c(Cl)c3)C1)c1ccccc1-c1ccccc12 (centres undefined)"
  inhibition (%): 5.67
- compound: "COc1cc(/C=C/C(=O)NCC(CCNc2cc(=O)c3ccccc3[nH]2)NCc2cc(Br)cc(Br)c2)cc(OC)c1 (centres undefined)"
  inhibition (%): 2.37
- compound: "Cc1ccccc1C1CCN(C2CCC(NC(=O)/C=C/c3ccc(Cl)cc3)CC2)CC1 (centres undefined)"
  inhibition (%): 2.42
- compound: "O=C(CSc1nccn1C1CCCC1)Nc1cc(C(F)(F)F)ccc1Cl"
  inhibition (%): 2
- compound: "COCCNC(=O)C1CCN(C(c2ccc(Cl)cc2)c2ccc(Cl)cc2)CC1"
  inhibition (%): 9.02
- compound: "Cc1nc(C)c(-c2ccc(-c3ccc(F)cc3)cc2)c(O)c1Br"
  inhibition (%): -1.77
- compound: "CCc1cccc(OCC2CCCN(c3ccc(C(=O)NC4CC4)cn3)C2)c1 (centres undefined)"
  inhibition (%): 3.3
- compound: "c1cc(COc2ccc(C3=NCCN3)cc2)nc(COc2ccc(C3=NCCN3)cc2)c1"
  inhibition (%): -0.59
- compound: "O=C(O)Cc1ccc(-c2c[nH]c3ncc(-c4cccc5ncccc45)cc23)cc1"
  inhibition (%): 0.63
- compound: "N#Cc1ccc(NC(=O)Nc2ccc3c(c2)CCN(C2CCC2)CC3)cc1"
  inhibition (%): 3.26
- compound: "Cc1cc(C(F)(F)F)cc(-n2ncc(-c3ccc(C(=O)NCCNCc4ccccc4)cc3)c2N)n1"
  inhibition (%): -0.24
- compound: "CCCCCCN1CCC(NCc2ccc(Cl)cc2)CC1"
  inhibition (%): 4.28
- compound: "COc1ccc(NC(=O)/C=C/c2ccccc2Cl)cc1OCCN1CCC(c2nc3ccccc3[nH]2)CC1"
  inhibition (%): 2.78
- compound: "Oc1ccc2[nH]c(-c3cccc(F)c3)nc2c1CN1CCC(N2CCCC2)CC1"
  inhibition (%): 4.9
- compound: "COc1ccc(C(=O)N2CCC3(CC2)C(=O)N(CC(=O)NCC2CCCCC2)CN3c2ccccc2)c(OC)c1"
  inhibition (%): 3.99
- compound: "CN(CCCCNC(=O)c1ccc(-c2ccccc2)cc1)C1CCc2c(O)cccc2C1 (centres undefined)"
  inhibition (%): 1.18
- compound: "CCCCCN1CCC(NS(=O)(=O)c2ccc(C(=O)Nc3cccc(C(F)(F)F)c3)cc2)C1 (centres undefined)"
  inhibition (%): 2.26
- compound: "OC1CCCN(Cc2ccc(-c3ccc(-c4nc5cc(F)ccc5[nH]4)cc3)cc2)C1 (centres undefined)"
  inhibition (%): 6.49
- compound: "O=C(Cc1ccc(NC(=O)c2ccc(O)c(-c3ccc(Cl)c(Cl)c3)c2)cc1)NCc1cccc(C(F)(F)F)c1"
  inhibition (%): 1.16
- compound: "Cc1cc2cc(/C=C/C(=O)NC3CCC(CCN4CCc5ccc(C#N)cc5CC4)CC3)ccc2[nH]1 (centres undefined)"
  inhibition (%): 8.66
- compound: "Cc1cc(N)c2cc(NC(=O)/C=C/c3ccc([N+](=O)[O-])cc3)ccc2n1"
  inhibition (%): 0.94
- compound: "CC1(C)NC(N)=NC(=N)N1OCCCO"
  inhibition (%): -1.67
- compound: "Cc1nc(N)nc(N)c1OCc1ccc(Cl)c(Cl)c1"
  inhibition (%): 2.48
- compound: "COc1ccc(C(=O)NCCCCN2CCC(c3ccc4c(c3OC)CCCC4)CC2)cc1-c1ccc(C(F)(F)F)cc1"
  inhibition (%): -1.69
- compound: "Fc1ccc2[nH]c(-c3cccc(-c4ccc(CN5CCC(CCN6CCCCC6)CC5)cc4)c3)nc2c1"
  inhibition (%): 10.4
- compound: "CC(C)CNCc1cccc(-c2ccccc2CNC2CCN(Cc3ccccc3)CC2)c1"
  inhibition (%): 7.56
- compound: "CN(C)CCCOC(=O)c1cc2cc(-c3ccccc3)ccc2n1S(=O)(=O)Cc1ccccc1"
  inhibition (%): 1.19

###

measured-target: Glucose transporter (Leishmania mexicana) (UniProt O61059)
experimental-details: ST_JUDE_LEISH: Cytotoxicity at 2uM final concentration against transgenic Leishmania Mexicana promastigotes LmGT2 that are glucose transport deficient and complemented with the L. Mexicana glucose transporter 2. Activity is measured by DNA content using SYBR green in vitro
Type: functional

- structure: "CC(C)CNCc1ccc(-c2cccc(-c3nc4ccccc4[nH]3)c2)cc1"
  inhibition, %: 0.1
- structure: "N=C(NCCc1ccc(Cl)c(Cl)c1)c1ccc2ccccc2c1"
  inhibition, %: -2.5
- structure: "COc1cc(NC(=O)c2nn(CCCN3CCC(N4CCCC4)CC3)cc2-c2ccc(Cl)c(Cl)c2)cc(OC)c1OC"
  inhibition, %: 1.96
- structure: "Cc1cccc(Cl)c1S(=O)(=O)N1CCCCC(c2ccc(C(F)(F)F)cc2)=N1"
  inhibition, %: 3.77
- structure: "COc1ccc(-c2cccc(NC(=O)c3cccc(C#N)c3)c2)cc1CN1CCC(O)CC1"
  inhibition, %: 4.2
- structure: "N#Cc1ccc(-c2ccc(C(=O)NCCCCN3CCC(c4ccncc4)CC3)cc2)cc1"
  inhibition, %: 2.75
- structure: "Cc1ccc(Cn2cnc3cc(C(=O)Nc4ccc(-c5cccc(CN(C)C)c5)cc4)ccc3c2=O)o1"
  inhibition, %: 51.1

###

# reported inhibition; entries follow
measured-target: Solute carrier family 2, facilitated glucose transporter member 1 (Homo sapiens)
experimental-details: ST_JUDE_LEISH: Cytotoxicity at 2uM final concentration against transgenic Leishmania Mexicana promastigotes LmGLUT1 that are glucose transport deficient and complemented with the human glucose transporter GLUT1. Activity is measured by DNA content using SYBR green in vitro
Format: functional
value-kind: inhibition (%)

- structure: "O=C(Nc1ccc(C(F)(F)F)cc1)NC1CCN(c2ccnc3ccccc23)CC1"
  numeric-value: 4.74
- structure: "COc1ccc(NC(=O)Nc2ccc(Nc3nc(C)cc(N4CCCC4)n3)cc2)cc1"
  numeric-value: 4.49
- structure: "CCc1cn2c3c(cc(C(=O)N[C@@H](Cc4ccccc4)[C@H](O)CNC4CCOCC4)cc13)N(C)S(=O)(=O)C2"
  numeric-value: 0.25
- structure: "Cc1cccc2nc(-c3ccc(-c4ccc(NC(=O)C5CCN(C)CC5)cc4)cc3)[nH]c12"
  numeric-value: 3.08
- structure: "N#Cc1cccc(C(=O)Nc2ccc(-c3cccc(CN4CCC(O)CC4)c3)cc2)c1"
  numeric-value: 0.21
- structure: "CN(C)CCN1CCN(Cc2ccc(-c3cccc(-c4nc5ccccc5[nH]4)c3)cc2)CC1"
  numeric-value: -2.11

###

# reported inhibition; entries follow
measured-target: Hexose transporter 1 (Plasmodium falciparum) (UniProt O97467)
experimental-details: ST_JUDE_LEISH: Cytotoxicity at 2uM final concentration against transgenic Leishmania Mexicana promastigotes LmPfHT that are glucose transport deficient and complemented with the Plasmodium falciparum hexose transporter. Activity is measured by DNA content using SYBR green in vitro
Type: functional
value-kind: inhibition (%)

- compound: "CCCCCCC(C)c1cc(O)c2c(c1)OC(=O)CC2(CC)c1ccccn1 (stereo not drawn)"
  numeric-value: 3.13
- compound: "CCCCCCCN1CCC(CCNc2ccnc3ccc(OC)cc23)CC1"
  numeric-value: 2.47
- compound: "CCN(CC)c1nc(N)c2c(N)nc3c(c2c1C#N)C(=O)CN3Cc1ccccc1"
  numeric-value: 6.8

###

measured-target: Solute carrier family 2, facilitated glucose transporter member 1 (Homo sapiens)
experimental-details: ST_JUDE_LEISH: Cytotoxicity at 2uM final concentration against transgenic Leishmania Mexicana promastigotes LmGLUT1 that are glucose transport deficient and complemented with the human glucose transporter GLUT1. Activity is measured by DNA content using SYBR green in vitro
Assay type: functional

- molecule: "NCc1ccc(Nc2nccc(Nc3ccc(-c4ccccc4)cc3)n2)cc1"
  unit-name: "%"
  inhibition: 2.28
- molecule: "Cc1onc(-c2ccccc2Cl)c1C(=O)Nc1cc(Cl)c(Cl)cc1Cl"
  unit-name: "%"
  inhibition: 3.43
- molecule: "COc1cc2nc(Nc3ccc4c(c3)OCCO4)nc(N)c2cc1OC"
  unit-name: "%"
  inhibition: -0.32
- molecule: "Cc1cc(NCCC(=O)Nc2ccccc2)nc(NCC2CCCCC2)n1"
  unit-name: "%"
  inhibition: 5.97
- molecule: "CC(C)Cc1cnc2nc(N)nc(N)c2c1"
  unit-name: "%"
  inhibition: 1.42
- molecule: "O=S(=O)(Nc1cccc(F)c1CNCc1ccccn1)c1ccc(Cl)c(Cl)c1"
  unit-name: "%"
  inhibition: -1.4
- molecule: "COc1ccc2nc(C)cc(N/N=C/c3ccc([N+](=O)[O-])o3)c2c1"
  unit-name: "%"
  inhibition: 3.7
- molecule: "O=C(Nc1ccc2c(c1)OCCO2)c1cc(-c2cccnc2)nc2ccc(Cl)cc12"
  unit-name: "%"
  inhibition: 3.75
- molecule: "COc1ccc(Nc2nccc(-c3ccc4c(-c5ccsc5)cnc(N)c4c3)n2)cc1"
  unit-name: "%"
  inhibition: 1.99
- molecule: "CC(Nc1nncc(-c2cccc(F)c2)n1)c1ccc(F)cc1 (stereo not drawn)"
  unit-name: "%"
  inhibition: 11.7
- molecule: "CC(C)CCN1CCCN(Cc2ccc(C(=O)Nc3ccc(C(C)(C)C)cc3)cc2)CC1"
  unit-name: "%"
  inhibition: 2.66
- molecule: "NC(=O)c1cc2nc(Nc3ccc(F)cc3)nc(Nc3ccc(S(N)(=O)=O)cc3)c2[nH]1"
  unit-name: "%"
  inhibition: 1.3
- molecule: "Fc1ccc2[nH]c(-c3cccc(-c4ccc(CN5CCC(CCN6CCCCC6)CC5)cc4)c3)nc2c1"
  unit-name: "%"
  inhibition: -0.64

Reference source for all entries: ChEMBL document CHEMBL3433997
